experiment: In vivo pharmacokinetic study in beagle dogs
particulars: male, dog, plasma, po, gavage, 10 mg/kg, read-out: Maximum blood concentration Cmax
attributeMeasured: Cmax

Query string: Entry under review: Cl.Cl.Cl.Cl.O=C(O)[C@@H](Cc1cccc(CN(CCOc2cccc(C[C@H](C(=O)O)[C@H]3CCNC3)c2)Cc2cccc(C[C@H](C(=O)O)[C@H]3CCNC3)c2)c1)[C@H]1CCNC1 [Compound A hydrochloride] . Reported Cmax?
Result string: 2470 ng/mL

----------
Entries and their measured Purity (%) follow.
experiment: Long-term accelerated stability test (Test Example 3), sealed in aluminum foil bags
Format: physicochemical
particulars: 40°C-75%RH, 7 days
Counter-ions that a name gives are not always drawn.
// note: answer is a bare numeric in %

Check out these entries, answers already filled in.
- O=C(O)[C@@H](Cc1cccc(CN(CCOc2cccc(C[C@H](C(=O)O)[C@H]3CCNC3)c2)Cc2cccc(C[C@H](C(=O)O)[C@H]3CCNC3)c2)c1)[C@H]1CCNC1 [hydrochloride (1:1) amorphous form]: 98.3
- Cl.Cl.Cl.Cl.O=C(O)[C@@H](Cc1cccc(CN(CCOc2cccc(C[C@H](C(=O)O)[C@H]3CCNC3)c2)Cc2cccc(C[C@H](C(=O)O)[C@H]3CCNC3)c2)c1)[C@H]1CCNC1 [hydrochloride (1:4) amorphous form]: 99.8

Query string: Entry under review: O=C(O)[C@@H](Cc1cccc(CN(CCOc2cccc(C[C@H](C(=O)O)[C@H]3CCNC3)c2)Cc2cccc(C[C@H](C(=O)O)[C@H]3CCNC3)c2)c1)[C@H]1CCNC1 [hydrochloride (1:1) crystal form e] . Reported Purity (%)?
Result string: 99.9

Query string: Follow-up entry: O=C(O)[C@@H](Cc1cccc(CN(CCOc2cccc(C[C@H](C(=O)O)[C@H]3CCNC3)c2)Cc2cccc(C[C@H](C(=O)O)[C@H]3CCNC3)c2)c1)[C@H]1CCNC1 [hydrochloride (1:1) crystal form a]
Result string: 99.8
